Molecular target: T1, human CD3 on the cell surface (Jurkat cells, expanded human T cells, Jurkat-Lucia NFAT cells, human PBMC) (human, UniProt P07766 23-207; P04234 22-171; P09693 23-182)
T1 construct: whole, on cells; Endogenous CD3 within the TCR-CD3 complex on cells (also zeta chains and TCR); the cell type is named under assay
T1 sequence (P07766 23-207, chain 1 of 3): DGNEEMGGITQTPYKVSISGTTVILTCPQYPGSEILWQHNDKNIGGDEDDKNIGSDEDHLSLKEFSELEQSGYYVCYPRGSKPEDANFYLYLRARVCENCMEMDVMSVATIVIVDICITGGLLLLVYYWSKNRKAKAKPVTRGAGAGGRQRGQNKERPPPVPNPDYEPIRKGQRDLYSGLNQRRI
T1 sequence (P04234 22-171, chain 2 of 3): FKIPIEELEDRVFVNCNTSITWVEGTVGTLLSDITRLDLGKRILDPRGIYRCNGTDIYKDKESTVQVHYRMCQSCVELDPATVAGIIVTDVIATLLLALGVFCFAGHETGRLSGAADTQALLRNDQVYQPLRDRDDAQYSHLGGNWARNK
T1 sequence (P09693 23-182, chain 3 of 3): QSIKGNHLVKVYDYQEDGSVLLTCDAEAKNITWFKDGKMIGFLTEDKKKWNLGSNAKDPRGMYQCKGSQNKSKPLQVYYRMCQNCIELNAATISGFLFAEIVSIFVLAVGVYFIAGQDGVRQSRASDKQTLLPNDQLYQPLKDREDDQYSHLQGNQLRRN
Test: FACS, Jurkat cells, hybridoma screening
Quantity Name: Mean fluorescence intensity (MFI)

>>> recorded_number("7-35.6 murine hybridoma antibody (supernatant) (antibody, V domains shown, Tested as hybridoma supernatant) VH: EVQLVESGGGLVQPKGSLKLSCAASGFTFNTYAMNWVRQAPGKGLEWVGRIRSKINNYATYYGDSVKDRFTISRDDSQSMFYLQMNNLKTEDTAMYYCVIHENYGSISWFAYWGQGTLVTVSA VL: QAVVTQESTLTTSPGETVTLTCRSSTGAVTTSNYANWVQEKPDHLFTGLIGGTNNRAPGVPARFSGSLIGDKAALTITGAQTEDEAIYFCALWYSNHWVFGGGTKLTVL")
284
>>> recorded_number("1-22.6 murine hybridoma antibody (supernatant) (antibody, V domains shown, Tested as hybridoma supernatant) VH: QIPLVQSGPELKKPGETVKISCKTSGYTFTSYGMSWVKQAPGKGLKWMGWINTYSGVPTYADDFKGRFVFSLDTSASTAFLQINNLKNEDTATYFCARLKNNPFCWGQGSTLTVFS VL: DVLMTQSPLSLPVRLGDQASISCRSSQLILHSNGNTYLEWYLQKPGQSPKLLIYKVSNRFSGVPDRFSGSGSGTDFTLKISRVEAEDLGVYYCFQGSHFPWTFGGGTKLEIK")
767
>>> recorded_number("5-7.13 murine hybridoma antibody (supernatant) (antibody, V domains shown, Tested as hybridoma supernatant) VH: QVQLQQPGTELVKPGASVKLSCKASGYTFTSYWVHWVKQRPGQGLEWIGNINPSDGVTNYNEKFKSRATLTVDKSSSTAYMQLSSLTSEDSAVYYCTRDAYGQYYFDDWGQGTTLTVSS VL: DIVMSQSPSSLVVSAGEKVTMSCKSSQSLLNSRTRKNYLAWYQQKPGQSPKLLIYWASVRDSGVPDRFTGSGSGTDFTLTISNVQAEDLAVYYCIQSYYLRTFGGGTILEIK")
8280
>>> recorded_number("6-44.5 murine hybridoma antibody (supernatant) (antibody, V domains shown, Tested as hybridoma supernatant) VH: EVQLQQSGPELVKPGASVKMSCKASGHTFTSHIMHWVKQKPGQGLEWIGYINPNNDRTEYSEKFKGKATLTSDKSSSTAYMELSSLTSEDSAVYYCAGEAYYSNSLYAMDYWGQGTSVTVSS VL: DIVMSQSPSSLAVSAGEKVTMSCKSSQSLFNSRTRKNYLAWYQQKPGQSPELLIYWASTRESGVPVRFTGSGSGTDFTLTISSVQAEDLAVYYCKQSYYLRTFGGGTKLEVK")
7240
>>> recorded_number("5-40.21 murine hybridoma antibody (supernatant) (antibody, V domains shown, Tested as hybridoma supernatant) VH: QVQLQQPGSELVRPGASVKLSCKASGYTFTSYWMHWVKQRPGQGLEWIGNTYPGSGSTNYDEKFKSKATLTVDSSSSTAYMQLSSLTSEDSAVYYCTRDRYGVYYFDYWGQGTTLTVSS VL: DIVMSQSPSSLAVSAGEKVTMSCKSSQSLLNSRTRKNYLAWYQQKPGQSPKLLIYWASTRESGVPDRFSGSGSGTDFTLTISSVQAEDLAVYYCTQSYNLRTFGGGTKLEIK")
6910
>>> recorded_number("6-35.22 murine hybridoma antibody (supernatant) (antibody, V domains shown, Tested as hybridoma supernatant) VH: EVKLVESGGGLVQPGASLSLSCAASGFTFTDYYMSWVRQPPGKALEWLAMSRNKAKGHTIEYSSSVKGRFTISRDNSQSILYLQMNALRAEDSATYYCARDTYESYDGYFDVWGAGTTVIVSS VL: DIVMSQSPSSLAVSAGETVTMSCKSSQSLFNSRSRKNYLAWYQQKPGQTPKLLIYWASIRESGVPDRFTGSGSGTDFTLTISSVQAEDLAVYYCKQSYYLYTFGSGTKLEIK")
7050
